study-target: GHS-R1a receptor (HEK293 cells expressing GHS-R1a receptor) (Homo sapiens)
Construct: host or cells: HEK293
Sequence (Q92847 whole entry): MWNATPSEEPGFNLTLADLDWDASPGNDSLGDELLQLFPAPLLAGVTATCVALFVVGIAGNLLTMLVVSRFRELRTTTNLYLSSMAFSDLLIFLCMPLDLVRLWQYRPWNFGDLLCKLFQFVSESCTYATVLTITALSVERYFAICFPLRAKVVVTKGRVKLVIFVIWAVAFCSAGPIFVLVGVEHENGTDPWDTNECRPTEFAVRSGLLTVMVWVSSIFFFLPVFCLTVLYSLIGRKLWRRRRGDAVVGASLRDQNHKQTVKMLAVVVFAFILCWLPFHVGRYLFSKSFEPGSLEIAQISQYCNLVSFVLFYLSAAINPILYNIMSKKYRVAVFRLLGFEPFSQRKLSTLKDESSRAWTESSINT
assay-explanation: Fluorescence functional assay (ghrelin receptor), Method B2, agonist and antagonist mode
Format: cell-based
condition-set: functional activity as an antagonist at the ghrelin receptor, Methods B2 and B3
property-label: Antagonist Activity

CC[C@@H]1C#Cc2ccc(F)cc2OCCN[C@@H](C(C)C)C(=O)N(C)[C@@H](C(C)O)C(=O)N[C@H](Cc2c[nH]c3ccccc23)C(=O)N1 (stereo partly drawn) ... B (B = 1-10 nM)
CCC(C)[C@@H]1NCCOc2ccccc2/C=C/CNC(=O)[C@@H](Cc2cccc(O)c2)NC(=O)[C@H](C(C)O)N(C)C1=O (stereo partly drawn) ... C (C = 10-100 nM)
CC(O)[C@H]1C(=O)N[C@H](Cc2ccccc2)C(=O)N[C@H](C)CCc2ccccc2OCCN[C@@H](C(C)(C)C)C(=O)N1C (stereo partly drawn) ... C (C = 10-100 nM)
CC(C)[C@@H]1NCCOc2ccccc2C[C@H](O)[C@@H](C)NC(=O)[C@@H](Cc2cccc(F)c2)NC(=O)[C@H](C(C)O)N(C)C1=O (stereo partly drawn) ... B (B = 1-10 nM)
CCC(C)C1NCCOc2cc(F)ccc2C=CCNC(=O)C(Cc2ccc(Cl)cc2)NC(=O)C(C(C)O)N(C)C1=O (stereo not drawn) ... B (B = 1-10 nM)

Turning now to a further compound:
Item CC[C@@H]1CCc2ccc(F)cc2OCCN[C@@H](C2(C)CC2)C(=O)N(C)[C@@H](C(C)O)C(=O)N[C@H](Cc2ccccc2)C(=O)N1 (stereo partly drawn) has what recorded Antagonist Activity? B (B = 1-10 nM)
